- System: Caco-2
- assay-method-text: cell viability relative to DMSO; higher = less toxic
- protocol-conditions: 72 h; 10000 nM
Would you mind telling me the reported cell viability of each entry?
Please give a number only; it is taken to be in %.

Task: Name the recorded cell viability for "Cc1ccc(Nc2c(F)cccc2Cl)c(CC(=O)O)c1" .
Result: 107

Task: Try this compound too: "N=C(N)SCCc1c[nH]cn1"
Result: 93.5

Task: Try this compound too: C[C@]12CCC(=O)C=C1C=C[C@@H]1[C@@H]2CC[C@@]2(C)[C@H]1CC[C@@]2(O)CCC(=O)O [potassium-canrenoate]
Result: 105

Task: Try this compound too: "Cc1ccc(-c2ncc[nH]2)cc1NC(=O)c1ccc(OCc2ccccn2)cc1"
Result: 85.2

Task: Try this compound too: "COc1ccc(S(=O)(=O)N2CCCN(S(=O)(=O)c3ccc(OC)c(OC)c3)CC2)cc1OC"
Result: 108

Task: Try this compound too: "CCCCCCCCCCCCCCCC[n+]1ccccc1"
Result: 16.5

Task: Try this compound too: "C[C@H]1CO[C@@H]2Cn3cc(C(=O)NCc4ccc(F)cc4F)c(=O)c(O)c3C(=O)N12"
Result: 81.6

Task: Try this compound too: "N[C@@H](CCC(=O)N[C@@H](CS)C(=O)NCC(=O)O)C(=O)O"
Result: 99.4

Task: Try this compound too: O=S(=O)(c1cccc2c(O)nccc12)N1CCCNCC1 [hydroxyfasudil]
Result: 109

###

- System: Calu-3
- assay-method-text: cell viability relative to DMSO; higher = less toxic
- protocol-conditions: 72 h; 10000 nM
Would you mind telling me the reported cell viability of each entry?
Please give a number only; it is taken to be in %.

Task: What reported cell viability corresponds to "CN(C)CCCOc1nn(Cc2ccccc2)c2ccccc12" on Calu-3?
Result: 90.5

Task: Try this compound too: "O=c1[nH]c2cc(C(F)(F)F)c(N3CCOCC3)cc2n(CP(=O)(O)O)c1=O"
Result: 109

Task: Try this compound too: "COc1cccc(NC(=O)/C=C/c2ccc(Cl)cc2)c1"
Result: 84.2

Task: Try this compound too: O=C1c2ccc(Nc3ccc(F)cc3F)cc2CCc2ccc(OC[C@H](O)CO)cc21 [skepinone-L]
Result: 94.7

Task: Try this compound too: COc1cc(C(=S)N2CCOCC2)ccc1O [vanitiolide]
Result: 104

Task: Try this compound too: Clc1ccc(C(Cn2ccnc2)OCc2c(Cl)cccc2Cl)c(Cl)c1 (centres undefined)
Result: 84.2

Task: Try this compound too: "O=C(O)CCNc1cc(N2CCc3ccccc3CC2)nc(-c2ccccn2)n1"
Result: 111

Task: Try this compound too: "COC(=O)Nc1nc2cc(SC(C)C)ccc2[nH]1"
Result: 64.6

Task: Try this compound too: "Oc1cc(CNC(=S)/C=C/c2cc(O)c(O)c(Br)c2)cc(O)c1O"
Result: 25.6

Task: Try this compound too: "N=C(N)NCCN1CCCCCCC1"
Result: 97.3

Task: Try this compound too: "O=C(Nc1c[nH]nc1-c1nc2ccc(CN3CCOCC3)cc2[nH]1)NC1CC1"
Result: 43.6

Task: Try this compound too: "COc1cc(Nc2ncc3c(n2)-c2ccc(Cl)cc2C(c2c(F)cccc2OC)=NC3)ccc1C(=O)O"
Result: 78.8

Task: Try this compound too: CCCC(O)C(CC)CO (centres undefined)
Result: 103

Task: Try this compound too: "Cc1cn2nc([C@@H]3CCCCN3C(=O)c3cc(Cl)ccc3NS(C)(=O)=O)cc2nc1N1CC[C@H](N)C1"
Result: 98.5

Task: Try this compound too: "CCCc1c(OCCCOc2ccc(OCC(=O)O)cc2)ccc(C(C)=O)c1O"
Result: 107

Task: Try this compound too: "CNC(=O)[C@H](Cc1ccccc1)NC(=O)[C@H](CC(C)C)[C@H](CSc1cccs1)C(=O)NO"
Result: 65.5

Task: Try this compound too: "Cc1cc(C)n(-c2cccc([C@H](CC(=O)O)CN3CC[C@@H](CCc4ccc5c(n4)NCCC5)C3)c2)n1"
Result: 98.4

Task: Try this compound too: "O=C(O)CNC(=O)c1nc(Cl)c2ccccc2c1O"
Result: 103

Task: Try this compound too: "O=C(Oc1ccc(Br)cc1)N1CCN2CCC1CC2"
Result: 95.7

###

- Test system: Vero E6
- assay-method-text: drug sensitivity score (DSS) for viability; higher = more toxic; extreme values may be limits of the assay
- protocol-conditions: 72 h
Would you mind telling me the reported drug sensitivity score of each entry?
The response must contain the number and no unit.

Task: Name the recorded drug sensitivity score for "O=C(NOCC1CC1)c1ccc(F)c(F)c1Nc1ccc(I)cc1Cl" .
Result: 7.9

Task: Try this compound too: "CN(C)CCCOc1nn(Cc2ccccc2)c2ccccc12"
Result: 0.5

Task: Try this compound too: "CCC1=C[C@@H]2CN(C1)Cc1c([nH]c3ccccc13)[C@@](C(=O)OC)(c1cc3c(cc1OC)N(C)[C@H]1[C@@](O)(C(=O)OC)[C@H](OC(C)=O)[C@]4(CC)C=CCN5CC[C@]31[C@@H]54)C2"
Result: 9.2

Task: Try this compound too: "Cc1ncc(-c2csc(N=C(N)N)n2)[nH]1"
Result: 0

Task: Try this compound too: "Cc1c(F)cccc1NC(=O)Nc1ccc(Cl)c(S(=O)(=O)[C@H]2CCCNC2)c1O"
Result: 0

Task: Try this compound too: "CCCc1cc(=O)[nH]c(=S)[nH]1"
Result: 0

Task: Try this compound too: O=[N+]([O-])c1nccn1CC(O)CN1CCCCC1 (centres undefined)
Result: 0

Task: Try this compound too: "CCC1=C[C@@H]2CN3CCc4c([nH]c5ccccc45)[C@@](C(=O)OC)(C2)[C@@H]13"
Result: 0

Task: Try this compound too: "O=c1oc2ccccc2c(O)c1Cc1c(O)c2ccccc2oc1=O"
Result: 0

Task: Try this compound too: Oc1ccc(CC2NCCc3cc(O)c(O)cc32)cc1 (centres undefined)
Result: 2.7

Task: Try this compound too: "Cc1ccc(-c2ncc[nH]2)cc1NC(=O)c1ccc(OCc2ccccn2)cc1"
Result: 0

Task: Try this compound too: "C[C@]12CCC(=O)C=C1CC[C@@H]1[C@@H]2CC[C@@]2(C)[C@H]1CC[C@]2(C)O"
Result: 0

Task: Try this compound too: "CCCCOc1cc(C(=O)NCCN(CC)CC)c2ccccc2n1"
Result: 0

Task: Try this compound too: "COc1cc(OC)c(/C=C/S(=O)(=O)Cc2ccc(OC)c(OP(=O)(O)O)c2)c(OC)c1"
Result: 25.5

Task: Try this compound too: Clc1ccc(C(c2ccccc2Cl)C(Cl)Cl)cc1 (centres undefined)
Result: 0

Task: Try this compound too: "COc1cc(-c2cc(-c3cccc(O)c3)cnc2N)cc(OC)c1OC"
Result: 0

Task: Try this compound too: "CC(C)C(=O)Oc1ccc(CO)cc1[C@H](CCN(C(C)C)C(C)C)c1ccccc1"
Result: 0

Task: Try this compound too: "COC(=O)Nc1nc2cc(SC(C)C)ccc2[nH]1"
Result: 4.7

Task: Try this compound too: "CCOC(=O)C(=O)Nc1cccc(OC)c1C(N)=O"
Result: 0

###

- Test system: HepG2
- assay-method-text: cell viability relative to DMSO; higher = less toxic
- protocol-conditions: 72 h; 10000 nM
TRUE if cell viability is below 90%. FALSE if not; exact matches included in FALSE.

Task: Given the entry "COc1cc2c(=O)c(-c3ccc(O)cc3)coc2cc1O" , would its reported cell viability be below 90%?
Result: FALSE

Task: Try this molecule too: Cc1nnc(C(C)C)n1C1C[C@H]2CC[C@@H](C1)N2CC[C@H](NC(=O)C1CCC(F)(F)CC1)c1ccccc1 (stereo in doubt)
Result: FALSE

Task: Try this molecule too: "Cc1cn2nc([C@@H]3CCCCN3C(=O)c3cc(Cl)ccc3NS(C)(=O)=O)cc2nc1N1CC[C@H](N)C1"
Result: FALSE

Task: Try this molecule too: "CC(C)c1cc(C(C)C)c(CC(=O)NS(=O)(=O)Oc2c(C(C)C)cccc2C(C)C)c(C(C)C)c1"
Result: TRUE

Task: Try this molecule too: "CCN1CCN(c2ccc(Nc3cc(N(C)C(=O)Nc4c(Cl)c(OC)cc(OC)c4Cl)ncn3)cc2)CC1"
Result: TRUE

Task: Try this molecule too: S=C(S)N1CCCC1 [pyrrolidine-dithiocarbamate]
Result: TRUE

Task: Try this molecule too: CC(=O)O[C@]1(C(C)=O)CC[C@H]2[C@@H]3CCC4=CC(=O)CCC4=C3[C@@H](c3ccc(N(C)C)cc3)C[C@@]21C [Ulipristal acetate]
Result: FALSE

Task: Try this molecule too: "Cc1ccc2c(Cl)cc(Cl)c(O)c2n1"
Result: FALSE
